target under test: Urea transporter 2 (Rattus norvegicus, UniProt Q62668)
Sequence (Q62668 whole entry): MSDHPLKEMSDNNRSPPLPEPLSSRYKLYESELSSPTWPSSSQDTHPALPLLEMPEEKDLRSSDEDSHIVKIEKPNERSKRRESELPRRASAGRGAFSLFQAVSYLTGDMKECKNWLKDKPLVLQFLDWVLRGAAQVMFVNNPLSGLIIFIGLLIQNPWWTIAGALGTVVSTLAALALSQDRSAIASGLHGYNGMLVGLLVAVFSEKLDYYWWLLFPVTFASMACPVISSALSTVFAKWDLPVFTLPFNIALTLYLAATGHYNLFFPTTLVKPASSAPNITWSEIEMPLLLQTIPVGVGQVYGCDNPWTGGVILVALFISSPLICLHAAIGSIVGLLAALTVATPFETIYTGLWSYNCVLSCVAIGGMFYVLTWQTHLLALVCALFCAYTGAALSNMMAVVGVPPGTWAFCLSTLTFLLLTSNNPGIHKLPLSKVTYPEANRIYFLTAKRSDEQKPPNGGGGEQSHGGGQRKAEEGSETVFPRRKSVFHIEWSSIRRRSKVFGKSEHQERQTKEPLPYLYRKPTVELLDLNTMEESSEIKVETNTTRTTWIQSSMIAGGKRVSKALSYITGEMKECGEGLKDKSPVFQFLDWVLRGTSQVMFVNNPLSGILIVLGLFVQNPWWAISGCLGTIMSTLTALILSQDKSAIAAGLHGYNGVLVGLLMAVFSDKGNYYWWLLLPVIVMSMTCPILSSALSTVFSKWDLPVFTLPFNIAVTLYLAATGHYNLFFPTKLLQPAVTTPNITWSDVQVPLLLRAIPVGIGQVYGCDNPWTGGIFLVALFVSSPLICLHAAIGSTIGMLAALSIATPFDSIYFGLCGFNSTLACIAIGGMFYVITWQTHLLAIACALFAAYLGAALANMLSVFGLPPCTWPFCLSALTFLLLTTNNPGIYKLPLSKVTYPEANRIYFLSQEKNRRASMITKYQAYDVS
assay text: Inhibition of rat UT-A1 expressed in MDCK cells incubated for 15 mins by fluorescence plate reader assay
pIC50: −log10 of the molar value.
quantity: pIC50

Worked cases, answers included:
>>> recorded_number("CCCc1nnc2c(Oc3ccc(NS(=O)(=O)c4cc(C)ccc4C)cc3)nc3ccccc3n12")
6.30
>>> recorded_number("CCCc1nnc2c(Oc3ccc(NS(=O)(=O)c4cc(Cl)ccc4OC)cc3)nc3cc(C)c(C)cc3n12")
6.40

(a) CCc1nnc2c(Oc3ccc(NS(=O)(=O)c4cc(C)ccc4C)cc3)nc3ccccc3n12
(b) CCCc1nnc2c(Oc3ccc(NS(=O)(=O)c4cc(C)ccc4OC)cc3)nc3ccccc3n12
Of a and b , which carries the smaller reported pIC50 figure? Reply with the label of the item you choose.
a
(a: 6.12, b: 6.40)
